Recorded remaining at 1 h values for a group of compounds are listed next.
PROTOCOL_TEXT: Metabolic stability in Sprague-Dawley rat liver microsomes assessed as parent compound remaining incubated for 1 hr by LC-MS analysis
Assay type: ADME, Microsome
CONDITION_SET: read-out: Stability
Could you give me the number in %? Just the number is fine.

Some solved entries appear below for comparison.
O=C(O)CCc1ccc(-c2ccc(OCc3c(-c4c(Cl)cccc4Cl)noc3C3CC3)cc2)cc1 ... 26.1
CC(C)c1onc(-c2c(Cl)cccc2Cl)c1COc1ccc(-c2cccc(C3(C(=O)O)CC3)c2)cc1 ... 41.1
O=C(O)Cc1ccc(-c2ccc(OCc3c(-c4c(Cl)cccc4Cl)noc3C3CC3)cc2)cc1 ... 86.8
O=C(O)C1(c2cccc(-c3ccc(OCc4c(-c5c(Cl)cccc5Cl)noc4C4CC4)cc3)c2)CC1 ... 68.6

Now look at this one.
Looking up `O=C(O)COc1ccc(-c2ccc(OCc3c(-c4c(Cl)cccc4Cl)noc3C3CC3)cc2)cc1` , I see its remaining at 1 h listed as 68.3
